Tested on: HaCaT
Test: Antihyperproliferative activity against human HaCaT cells after 48 hrs by phase contrast microscopic analysis
Format: functional, cell-based
Simple rule here: IC50 less than 2 µM is YES, otherwise NO.

Q: Find out if reported IC50 for O=C1c2ccsc2C(=O)c2c(Br)cccc21 is less than 2 µM
Result: NO

Q: Find out if reported IC50 for O=C(Oc1ccccc1)c1cc2c(s1)C(=O)c1c(Br)cccc1C2=O is less than 2 µM
Result: NO

Q: Find out if reported IC50 for O=C1c2ccsc2C(=O)c2c(F)cccc21 is less than 2 µM
Result: NO

Q: Find out if reported IC50 for O=C(Nc1ccccc1)c1cc2c(s1)C(=O)c1c(Cl)cccc1C2=O is less than 2 µM
Result: NO

Q: Find out if reported IC50 for CCc1noc(-c2cc3c(s2)C(=O)c2c(Cl)cccc2C3=O)n1 is less than 2 µM
Result: YES

Q: Find out if reported IC50 for O=C(O)c1cc2c(s1)C(=O)c1c(Cl)cccc1C2=O is less than 2 µM
Result: NO

Q: Find out if reported IC50 for O=C(c1cccs1)c1cc2c(s1)C(=O)c1c(Br)cccc1C2=O is less than 2 µM
Result: NO

Q: Find out if reported IC50 for CCNC(=O)c1cc2c(s1)C(=O)c1c(Cl)cccc1C2=O is less than 2 µM
Result: YES

Q: Find out if reported IC50 for CCC(=O)c1cc2c(s1)C(=O)c1c(Br)cccc1C2=O is less than 2 µM
Result: NO

Q: Find out if reported IC50 for CCOC(=O)c1cc2c(s1)C(=O)c1c(Br)cccc1C2=O is less than 2 µM
Result: YES

Q: Find out if reported IC50 for O=C(c1cccnc1)c1cc2c(s1)C(=O)c1c(Br)cccc1C2=O is less than 2 µM
Result: NO
